# Lookup of reported EC50 keyed by entry
- System: Human immunodeficiency virus 1
- Measurement description: Antiviral activity against HIV1 harboring K103 N mutant infected in human MT4 cells assessed as protection against virus-induced cytopathicity
- Type: functional, organism-based
- Test settings: Human immunodeficiency virus 1, MT4

Sample answers from the record:
{"Smiles repr": "O=c1[nH]c(=O)n(COCc2ccccc2)c(Sc2ccc(F)cc2)c1C1CC1", "EC50": "> 40.8 µM"}
{"Smiles repr": "O=c1[nH]c(=O)n(COCc2ccccc2)c(Sc2c(F)cccc2F)c1C1CC1", "EC50": "> 29 µM"}

Switching to the query record.
Exercise: I am curious: what EC50 value has been reported for O=c1[nH]c(=O)n(COCc2ccccc2)c(Sc2ccc(Br)cc2)c1C1CC1 ?
Solution: > 25.9 µM

====

- Measurement description: Selectivity index, ratio of CC50 for cytotoxicity against human MT4 cells to EC50 for antiviral activity against wild type HIV1 IIIB infected in human MT4 cells
- Type: toxicity, cell-based
- Test settings: read-out: Ratio CC50/EC50
API: label(entry) gives Yes if the entry's selectivity ratio is strictly smaller than 40; on equality or larger values it gives No.

Field: example entries. Status: answers known.
{"Smiles repr": "Cc1ccc(Sc2c(C3CC3)c(=O)[nH]c(=O)n2COCc2ccccc2)cc1", "Label value": "Yes"}
{"Smiles repr": "Cc1ccccc1Sc1c(C2CC2)c(=O)[nH]c(=O)n1COCc1ccccc1", "Label value": "No"}
{"Smiles repr": "COc1ccc(Sc2c(C3CC3)c(=O)[nH]c(=O)n2COCc2ccccc2)cc1", "Label value": "Yes"}

Exercise: Item COc1ccc(OC)c(Sc2c(C3CC3)c(=O)[nH]c(=O)n2COCc2ccccc2)c1 : selectivity ratio beneath 40, strictly?
Solution: No

Exercise: Item O=c1[nH]c(=O)n(COCc2ccccc2)c(Sc2ccccc2F)c1C1CC1 : selectivity ratio beneath 40, strictly?
Solution: No

Exercise: Item O=c1[nH]c(=O)n(COCc2ccccc2)c(Sc2cccc3ccccc23)c1C1CC1 : selectivity ratio beneath 40, strictly?
Solution: Yes

====

- Test system: Human immunodeficiency virus 1
- Measurement description: Antiviral activity against HIV1 harboring K103 N mutant infected in human MT4 cells assessed as protection against virus-induced cytopathicity
- Format: functional, organism-based
- Test settings: Human immunodeficiency virus 1, MT4
pEC50: −log10 of the molar value.
# Lookup of reported pEC50 keyed by entry

Sample answers from the record:
{"Smiles repr": "Cc1cccc(C)c1Sc1c(C2CC2)c(=O)[nH]c(=O)n1COCc1ccccc1", "Target of assay": "Human immunodeficiency virus 1", "Observation type": "pEC50", "Observed result": "< 4.52"}
{"Smiles repr": "O=c1[nH]c(=O)n(COCc2ccccc2)c(Sc2cccc(F)c2F)c1C1CC1", "Target of assay": "Human immunodeficiency virus 1", "Observation type": "pEC50", "Observed result": "< 5.42"}
{"Smiles repr": "O=c1[nH]c(=O)n(COCc2ccccc2)c(Sc2ccc(F)cc2F)c1C1CC1", "Target of assay": "Human immunodeficiency virus 1", "Observation type": "pEC50", "Observed result": "< 4.48"}
{"Smiles repr": "O=c1[nH]c(=O)n(COCc2ccccc2)c(Sc2c(Cl)cccc2Cl)c1C1CC1", "Target of assay": "Human immunodeficiency virus 1", "Observation type": "pEC50", "Observed result": "< 4.64"}
{"Smiles repr": "O=c1[nH]c(=O)n(COCc2ccccc2)c(Sc2ccccc2)c1C1CC1", "Target of assay": "Human immunodeficiency virus 1", "Observation type": "pEC50", "Observed result": "< 4.51"}
{"Smiles repr": "O=c1[nH]c(=O)n(COCc2ccccc2)c(Sc2cccc3ccccc23)c1C1CC1", "Target of assay": "Human immunodeficiency virus 1", "Observation type": "pEC50", "Observed result": "< 3.75"}

Exercise: Item COc1cc(OC)cc(Sc2c(C3CC3)c(=O)[nH]c(=O)n2COCc2ccccc2)c1 with Human immunodeficiency virus 1 - pEC50?
Solution: < 4.53

====

- Measurement description: Cytotoxicity against human MT4 cells assessed as reduction in cell viability
- Format: toxicity, cell-based
Observation type: CC50 (µM)
Only the number, expressed in µM, is required.

{"Smiles repr": "O=c1[nH]c(=O)n(COCc2ccccc2)c(Sc2cccc(Cl)c2)c1C1CC1", "CC50 [µM]": 29.7}

Exercise: I am curious: what CC50 value has been reported for O=c1[nH]c(=O)n(COCc2ccccc2)c(Sc2cc(Cl)cc(Cl)c2)c1C1CC1 ?
Solution: 28.7

Exercise: I am curious: what CC50 value has been reported for Cc1ccc(C)c(Sc2c(C3CC3)c(=O)[nH]c(=O)n2COCc2ccccc2)c1 ?
Solution: 74.8

Exercise: I am curious: what CC50 value has been reported for O=c1[nH]c(=O)n(COCc2ccccc2)c(Sc2cccc(F)c2F)c1C1CC1 ?
Solution: 31.4

Exercise: I am curious: what CC50 value has been reported for COc1ccccc1Sc1c(C2CC2)c(=O)[nH]c(=O)n1COCc1ccccc1 ?
Solution: 33.6

Exercise: I am curious: what CC50 value has been reported for CC(C)c1c(Sc2cccc3ccccc23)n(COCc2ccccc2)c(=O)[nH]c1=O ?
Solution: 34

====

# Lookup of reported CC50 keyed by entry
- Measurement description: Cytotoxicity against human MT4 cells assessed as reduction in cell viability
- Format: toxicity, cell-based
Only the number, expressed in µM, is required.

{"Smiles repr": "Cc1ccc(Sc2c(C3CC3)c(=O)[nH]c(=O)n2COCc2ccccc2)c(C)c1", "CC50 (µM)": 32.2}
{"Smiles repr": "O=c1[nH]c(=O)n(COCc2ccccc2)c(Sc2ccncc2)c1C1CC1", "CC50 (µM)": 177}
{"Smiles repr": "O=c1[nH]c(=O)n(COCc2ccccc2)c(Sc2ccccc2Br)c1C1CC1", "CC50 (µM)": 27.2}

Switching to the query record.
Exercise: I am curious: what CC50 value has been reported for O=c1[nH]c(=O)n(COCc2ccccc2)c(Sc2cc(Cl)ccc2Cl)c1C1CC1 ?
Solution: 33.9

====

- Measurement description: Cytotoxicity against human MT4 cells assessed as reduction in cell viability
- Type: toxicity, cell-based
Observation type: CC50

Sample answers from the record:
{"Compound": "COc1cc(OC)cc(Sc2c(C3CC3)c(=O)[nH]c(=O)n2COCc2ccccc2)c1", "CC50": "29.7 µM"}
{"Compound": "Cc1ccccc1Sc1c(C2CC2)c(=O)[nH]c(=O)n1COCc1ccccc1", "CC50": "30.1 µM"}
{"Compound": "Cc1cn([C@H]2C[C@H](N=[N+]=[N-])[C@@H](CO)O2)c(=O)[nH]c1=O [ZIDOVUDINE]", "CC50": "> 7.48 µM"}

Exercise: I am curious: what CC50 value has been reported for O=c1[nH]c(=O)n(COCc2ccccc2)c(Sc2cc(F)cc(F)c2)c1C1CC1 ?
Solution: 30 µM

Exercise: I am curious: what CC50 value has been reported for Cc1ccnc2c1NC(=O)c1cccnc1N2C1CC1 [NEVIRAPINE] ?
Solution: > 9.51 µM

====

# Lookup of reported log10 of EC50 keyed by entry
- System: Human immunodeficiency virus 1
- Measurement description: Antiviral activity against HIV1 harboring L100I mutant infected in human MT4 cells assessed as protection against virus-induced cytopathicity
- Assay type: functional, organism-based
- Test settings: Human immunodeficiency virus 1, MT4
Hey, these are logged values: log10 of EC50, µM being the unit before logging.

Sample answers from the record:
{"Smiles repr": "O=c1[nH]c(=O)n(COCc2ccccc2)c(Sc2ccncc2)c1C1CC1", "Target of assay": "Human immunodeficiency virus 1", "Observed result": 0.16}
{"Smiles repr": "Cc1ccnc2c1NC(=O)c1cccnc1N2C1CC1", "Target of assay": "Human immunodeficiency virus 1", "Observed result": 0.11}
{"Smiles repr": "Cc1ccccc1Sc1c(C2CC2)c(=O)[nH]c(=O)n1COCc1ccccc1", "Target of assay": "Human immunodeficiency virus 1", "Observed result": 0.03}
{"Smiles repr": "COc1ccc(OC)c(Sc2c(C3CC3)c(=O)[nH]c(=O)n2COCc2ccccc2)c1", "Target of assay": "Human immunodeficiency virus 1", "Observed result": -0.18}
{"Smiles repr": "O=c1[nH]c(=O)n(COCc2ccccc2)c(Sc2c(Cl)cccc2Cl)c1C1CC1", "Target of assay": "Human immunodeficiency virus 1", "Observed result": 0.42}

Exercise: I am curious: what log10 of EC50 value has been reported for O=c1[nH]c(=O)n(COCc2ccccc2)c(Sc2cccc(F)c2F)c1C1CC1 ?
Solution: -0.30

Exercise: I am curious: what log10 of EC50 value has been reported for O=c1[nH]c(=O)n(COCc2ccccc2)c(Sc2ccccn2)c1C1CC1 ?
Solution: -0.41

Exercise: I am curious: what log10 of EC50 value has been reported for O=c1[nH]c(=O)n(COCc2ccccc2)c(Sc2cc(Cl)ccc2Cl)c1C1CC1 ?
Solution: -0.92

Exercise: I am curious: what log10 of EC50 value has been reported for O=c1[nH]c(=O)n(COCc2ccccc2)c(Sc2ccccc2)c1C1CC1 ?
Solution: 0.09
